Species: Homo sapiens
Assay: Selectivity ratio of IC50 for human CB1 receptor to IC50 for human CB2 receptor
I'd appreciate it if you marked entries MET when Ratio IC50 is lower than 0.3 and NOT MET when it is not.

- CC/C=C/C/C=C\CC/C=C/C=C/C(=O)NCC(C)(C)O: MET
- C/C=C/C=C/C=C/CC/C=C/C=C/C(=O)NCC(C)(C)O: NOT MET
- C/C=C/C=C/C=C\CC/C=C/C(=O)NCC(C)(O)CO (stereo unspecified): MET
- C/C=C/C=C/C=C/CC/C=C/C=C/C(=O)NCC(C)C: MET
- C/C=C/C=C/C=C\CC/C=C/C=C/C(=O)NCC(C)(C)O: NOT MET
- CCCCCCCCC/C=C/C=C/C(=O)NCC(C)(C)O [TETRAHYDROBUNGEANOOL]: NOT MET
